# MEASUREMENT TARGET: cytoplasmic kinase domain of human IGF-1R (IGF-1R-GST) (Homo sapiens, UniProt P08069)
# Construct: cytoplasmic kinase domain of human IGF-1R (amino acids 964-1370); GST (glutathione-S-transferase)
# Sequence (P08069 964-1367 limits assumed): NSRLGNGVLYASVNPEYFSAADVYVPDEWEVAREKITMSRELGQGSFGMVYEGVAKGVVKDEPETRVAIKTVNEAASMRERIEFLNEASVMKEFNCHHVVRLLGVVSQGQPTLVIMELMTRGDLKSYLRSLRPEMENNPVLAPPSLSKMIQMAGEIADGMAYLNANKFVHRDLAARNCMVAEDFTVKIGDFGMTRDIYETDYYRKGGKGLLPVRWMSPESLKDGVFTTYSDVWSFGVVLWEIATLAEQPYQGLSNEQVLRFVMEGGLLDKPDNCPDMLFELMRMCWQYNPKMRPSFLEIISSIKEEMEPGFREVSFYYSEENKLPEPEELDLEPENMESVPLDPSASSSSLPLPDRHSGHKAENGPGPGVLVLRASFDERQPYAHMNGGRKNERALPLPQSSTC
# ASSAY EXPLANATION: Insulin-like growth factor-1 receptor (IGF-1R) kinase assay (DELFIA)
# RUN PARAMETERS: IGF-1R-GST kinase activity, read-out: IGF1R IC50
ENDPOINT LABEL: pIC50
Give bare numbers, as −log10 of the molar value.

Here is how some compounds turned out for pIC50.
>  <COMPOUND>
COc1cc(N2CCN(C3CCN(C)CC3)CC2)ccc1Nc1ncc(C(F)(F)F)c(NCc2cccc3c2C(C)(C)C(=O)N3)n1

>  <pIC50>
9.24

$$$$
>  <COMPOUND>
COc1cc(N2CCN(CC(C)(C)O)CC2)ccc1Nc1ncc(C(F)(F)F)c(NCc2cccc3c2C(C)(C)C(=O)N3)n1

>  <pIC50>
9.00

$$$$
>  <COMPOUND>
Cc1cc(C2CCN(C)CC2)ccc1Nc1ncc(Br)c(NCc2cccc3c2C(C)(C)C(=O)N3)n1

>  <pIC50>
9.16

$$$$
>  <COMPOUND>
COc1cc(N2CCC(N3CCC(C#N)CC3)CC2)ccc1Nc1ncc(C(F)(F)F)c(NCc2cccc3c2CC(=O)N3)n1

>  <pIC50>
8.15

$$$$
>  <COMPOUND>
COc1cc(N2CCC(O)CC2)ccc1Nc1ncc(C(F)(F)F)c(NCc2cccc3c2CC(=O)N3)n1

>  <pIC50>
7.68

$$$$
>  <COMPOUND>
CCOC(=O)N1CCN(c2ccc(Nc3ncc(C(F)(F)F)c(NCc4cccc5c4CC(=O)N5)n3)c(OC)c2)CC1

>  <pIC50>
7.14

$$$$

Please give pIC50 for each item listed below.
1. COCCN1CCC(c2ccc(Nc3ncc(Cl)c(NCc4cccc5c4C(C)(C)C(=O)N5)n3)cc2)CC1
2. COc1cc(N2CCC(N3CCOCC3)CC2)ccc1Nc1ncc(C(F)(F)F)c(NCc2cccc3c2C(C)(C)C(=O)N3)n1
3. COc1cc(N2CCC(N3CCC(OC)CC3)CC2)ccc1Nc1ncc(C(F)(F)F)c(NCc2cccc3c2C(C)(C)C(=O)N3)n1
4. Cc1cc(C2CCCN(CC(C)(C)O)C2)ccc1Nc1ncc(C(F)(F)F)c(NCc2cccc3c2C(C)(C)C(=O)N3)n1 (racemic)

// result
[8.70, 9.42, 9.48, 9.00]

Please give pIC50 for each item listed below.
1. COCCNC1CCN(c2ccc(Nc3ncc(C(F)(F)F)c(NCc4cccc5c4C(C)(C)C(=O)N5)n3)c(OC)c2)CC1
2. CC(C)(O)C(=O)N1CCC(c2ccc(Nc3ncc(Br)c(NCc4cccc5c4C(C)(C)C(=O)N5)n3)cc2)CC1
3. CC1(C)C(=O)Nc2cccc(CNc3nc(Nc4ccc(C5CCCN(CC(O)C(F)(F)F)C5)cc4)ncc3Br)c21 (racemic)
4. COc1cc(N2CCN(C(C)C)CC2)ccc1Nc1ncc(Cl)c(NCc2cccc3c2C(C)(C)C(=O)N3)n1

// result
[9.70, 8.15, 8.70, 8.70]
